- target-of-assay: SARS-CoV-2 Spike on pseudotyped virus (PsV) (SARS-CoV-2, UniProt P0DTC2 14-1273)
- assay-text: cell-based or functional assay

# binder, result-units, limit-operator, IC50 SARS-CoV2 PsV, IgG
rows = [
    ("mAb 324 (antibody, V domains shown) VH: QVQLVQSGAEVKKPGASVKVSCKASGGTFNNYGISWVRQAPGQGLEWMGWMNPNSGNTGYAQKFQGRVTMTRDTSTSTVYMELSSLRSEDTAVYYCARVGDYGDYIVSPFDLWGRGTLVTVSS VL: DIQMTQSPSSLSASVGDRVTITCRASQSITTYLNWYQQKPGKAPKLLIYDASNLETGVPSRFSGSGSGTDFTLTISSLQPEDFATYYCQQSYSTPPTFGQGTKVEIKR", "µg/mL", "=", 0.78),
    ("mAb 178 (antibody, V domains shown) VH: QVQLVQSGAEVKKPGASVKVSCKASGYTFTDYHMHWVRQAPGQGLEWMGWINPNSGGTNYAQKFQGRVTMTRDTSTSTVYMELSSLRSEDTAVYYCARDISSWYEITKFDPWGQGTLVTVSS VL: EIVMTQSPATLSVSPGERATLSCKASQSVSGTYLAWYQQKPGQAPRLLIYGASTRATGIPARFSGSGSGTEFTLTISSLQSEDFAVYYCLQTHSYPPTFGQGTKVEIKR", "µg/mL", ">", 50),
]
